B1: library; numbered along this chain (parent)
chain: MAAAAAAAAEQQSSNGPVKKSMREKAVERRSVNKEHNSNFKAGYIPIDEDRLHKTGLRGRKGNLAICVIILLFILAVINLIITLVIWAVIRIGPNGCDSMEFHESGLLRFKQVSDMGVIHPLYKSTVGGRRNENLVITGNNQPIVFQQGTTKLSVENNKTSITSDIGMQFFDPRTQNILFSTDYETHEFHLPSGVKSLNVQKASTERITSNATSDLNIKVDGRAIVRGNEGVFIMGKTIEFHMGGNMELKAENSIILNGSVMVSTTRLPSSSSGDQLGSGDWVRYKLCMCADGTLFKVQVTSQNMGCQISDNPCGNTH

- Variants of: B1
- Assay: SGCB cell-surface expression functional score (HA stain, bin4 vs bin1, normalised to synonymous) (log10 ratio); higher = more cell-surface SGCB (functional)
We'd kindly ask you to apply these SGCB cell-surface expression functional score (log10) classes: c1: < -0.2; c2: ≥ -0.2 and < 0.2; c3: ≥ 0.2

[[record]]
mutation_code = "G59T"
assigned_category = "c3"

[[record]]
mutation_code = "E230Y"
assigned_category = "c3"

[[record]]
mutation_code = "N157R"
assigned_category = "c2"

[[record]]
mutation_code = "D311M"
assigned_category = "c3"

[[record]]
mutation_code = "K219S"
assigned_category = "c3"

[[record]]
mutation_code = "S210M"
assigned_category = "c1"

[[record]]
mutation_code = "I144Q"
assigned_category = "c1"

[[record]]
mutation_code = "P46F"
assigned_category = "c3"

[[record]]
mutation_code = "V85D"
assigned_category = "c1"

[[record]]
mutation_code = "F110H"
assigned_category = "c2"

[[record]]
mutation_code = "T301L"
assigned_category = "c1"

